test_target: TLR8 (Homo sapiens, UniProt Q9NR97)
Sequence (Q9NR97 27-1041): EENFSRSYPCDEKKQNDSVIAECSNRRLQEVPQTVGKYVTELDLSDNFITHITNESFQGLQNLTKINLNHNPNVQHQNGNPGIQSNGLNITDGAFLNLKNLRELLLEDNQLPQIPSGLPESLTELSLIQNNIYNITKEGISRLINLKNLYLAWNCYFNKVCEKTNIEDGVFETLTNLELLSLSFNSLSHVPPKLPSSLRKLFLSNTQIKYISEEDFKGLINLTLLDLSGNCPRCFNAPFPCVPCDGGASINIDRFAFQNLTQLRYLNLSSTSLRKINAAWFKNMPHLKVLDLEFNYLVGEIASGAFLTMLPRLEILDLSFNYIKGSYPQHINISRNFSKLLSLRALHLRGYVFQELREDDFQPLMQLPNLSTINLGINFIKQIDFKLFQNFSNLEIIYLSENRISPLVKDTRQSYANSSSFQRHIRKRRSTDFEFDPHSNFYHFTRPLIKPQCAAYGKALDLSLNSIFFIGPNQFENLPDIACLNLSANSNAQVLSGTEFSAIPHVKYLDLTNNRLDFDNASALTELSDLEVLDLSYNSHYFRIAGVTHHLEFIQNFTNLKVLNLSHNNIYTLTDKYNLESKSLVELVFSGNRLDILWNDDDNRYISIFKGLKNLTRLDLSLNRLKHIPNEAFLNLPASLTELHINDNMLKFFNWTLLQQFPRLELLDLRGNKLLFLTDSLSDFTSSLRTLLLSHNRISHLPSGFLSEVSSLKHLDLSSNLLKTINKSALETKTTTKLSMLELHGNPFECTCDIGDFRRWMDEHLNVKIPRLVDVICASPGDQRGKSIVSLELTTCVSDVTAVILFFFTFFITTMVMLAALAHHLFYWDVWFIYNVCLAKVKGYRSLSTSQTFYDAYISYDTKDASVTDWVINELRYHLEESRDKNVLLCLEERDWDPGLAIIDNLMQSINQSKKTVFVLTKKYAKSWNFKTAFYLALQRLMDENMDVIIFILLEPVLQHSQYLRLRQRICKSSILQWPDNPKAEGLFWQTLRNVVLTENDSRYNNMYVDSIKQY
test: HEK/293 TLR8 Cell Assay
condition_summary: HEK cells, R848 agonist 30 uM final concentration, Steady-Glo readout; read-out: TLR8 potency
assay_metric: IC50

molecule	data_value
N#Cc1ccc(N2C[C@H](NCCCS(N)(=O)=O)C[C@H](C(F)(F)F)C2)c2cccnc12	75 to 150 nM
C[C@H]1C[C@@H](NC(=O)CCC2CCN(C)CC2)CN(c2cnc(C#N)c3nccnc23)C1	< 75 nM
C[C@@H]1CN(c2cnc(C#N)c3ncccc23)C[C@H](C(=O)NC[C@H]2CCCN2C)O1	75 to 150 nM
C[C@H]1C[C@@H](NC(=O)CC2CCN(CCO)CC2F)CN(c2cnc(C#N)c3ncccc23)C1 (stereo partly shown)	< 75 nM
C[C@@H]1CN(c2cnc(C(F)(F)F)c3ncccc23)C[C@H](CNC[C@H]2CN(C)CCO2)O1 (single isomer, unassigned)	< 75 nM
Cc1c(F)cc(N2C[C@@H](C)C[C@@H](NC(=O)CC3(O)CCN(C)CC3)C2)c2cccnc12	< 75 nM

-- ask Give the measured IC50 of C[C@@H]1CN(c2cnc(C(F)(F)F)c3ncccc23)C[C@H](CNC[C@@H]2CN(C)CCO2)O1 (single isomer, unassigned) .
-- reply < 75 nM

* * *

test_target: UniProt Q9NR97
test: HEK/293 TLR8 Cell Assay
condition_summary: HEK cells, R848 agonist 30 uM final concentration, Steady-Glo readout; read-out: TLR8 potency
Structures can show the parent of a compound that is named as a salt.
assay_metric: IC50

Recorded IC50, per entry:
compound	assay_metric	data_value
C[C@H]1C[C@@H](OCCN2CCCCC2)CN(c2ccc(C(F)(F)F)c3ncccc23)C1 (racemic) [Example 3]	IC50	< 75 nM
C[C@H]1C[C@@H](NC(=O)CC2(F)CCN(C)CC2)CN(c2ccc(C#N)c3ncncc23)C1 [Example 88]	IC50	< 75 nM
C[C@H]1C[C@@H](N)CN(c2cnc(C(F)(F)F)c3ncccc23)C1 [Example 7, hydrochloride]	IC50	< 75 nM
CCN(C)CCNC(=O)[C@H]1CN(c2ccc(C#N)c3ncncc23)C[C@@H](C)O1 [Example 266]	IC50	> 150 nM
Cc1ncc(N2C[C@@H](C)C[C@@H](NC(=O)CC3(N)CC3)C2)c2cccnc12 [Example 121]	IC50	< 75 nM

Okay, here is my list. What is IC50 for each of these?
1. CN1CC[C@](F)(CNC(=O)[C@@H]2CN(c3ccc(C#N)c4nccnc34)C[C@H](C(F)(F)F)O2)C1 (single isomer, unassigned) [Example 358]
2. C[C@@H]1CN(c2cnc(C#N)c3ncccc23)C[C@H](CN2CCC(F)(CN)CC2)O1 [Example 370]

-- reply
< 75 nM
< 75 nM

* * *

test_target: TLR7 (Homo sapiens)
Sequence (Q9NYK1 27-1049): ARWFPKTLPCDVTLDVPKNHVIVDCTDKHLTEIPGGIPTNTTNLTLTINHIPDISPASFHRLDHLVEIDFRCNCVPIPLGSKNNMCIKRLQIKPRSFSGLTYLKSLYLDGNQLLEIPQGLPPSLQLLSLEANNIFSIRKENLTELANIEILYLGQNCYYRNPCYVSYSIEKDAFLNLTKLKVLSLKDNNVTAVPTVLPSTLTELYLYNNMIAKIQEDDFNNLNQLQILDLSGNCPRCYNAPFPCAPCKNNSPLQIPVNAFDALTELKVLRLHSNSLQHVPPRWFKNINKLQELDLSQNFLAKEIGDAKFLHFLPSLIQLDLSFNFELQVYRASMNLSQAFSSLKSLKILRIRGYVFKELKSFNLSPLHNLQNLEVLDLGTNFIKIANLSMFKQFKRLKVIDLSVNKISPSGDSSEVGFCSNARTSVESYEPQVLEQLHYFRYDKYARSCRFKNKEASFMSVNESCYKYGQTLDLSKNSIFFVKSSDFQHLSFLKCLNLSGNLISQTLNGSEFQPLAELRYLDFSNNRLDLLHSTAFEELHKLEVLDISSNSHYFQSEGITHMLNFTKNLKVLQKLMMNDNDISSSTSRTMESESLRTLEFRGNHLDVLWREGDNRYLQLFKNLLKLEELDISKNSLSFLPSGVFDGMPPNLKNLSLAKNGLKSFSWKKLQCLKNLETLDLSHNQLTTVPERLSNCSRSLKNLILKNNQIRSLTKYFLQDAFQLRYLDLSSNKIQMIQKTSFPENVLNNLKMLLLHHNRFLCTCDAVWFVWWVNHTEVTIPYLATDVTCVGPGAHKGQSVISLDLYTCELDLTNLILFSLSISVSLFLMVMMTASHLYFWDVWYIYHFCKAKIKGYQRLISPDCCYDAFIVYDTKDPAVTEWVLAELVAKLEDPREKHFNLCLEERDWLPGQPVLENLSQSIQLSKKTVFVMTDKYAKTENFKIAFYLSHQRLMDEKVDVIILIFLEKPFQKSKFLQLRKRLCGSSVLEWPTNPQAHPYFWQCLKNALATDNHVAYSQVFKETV
test: HEK/293 TLR7 Cell Assay
condition_summary: TLR7/NFKb HEK cells, R848 agonist 10 uM final concentration, Steady-Glo readout; read-out: TLR7 potency
Record form. Attribute: IC50. Fill in for each entry.

Okay, here is my list. What is IC50 for each of these?
1. C[C@H]1C[C@@H](NCCN2CCOC2=O)CN(c2ccc(C(F)(F)F)c3ncccc23)C1 [Example 29]
2. CN1CCC(F)(CNC(=O)[C@H]2CN(c3ccc(C#N)c4nccnc34)C[C@@H](C(F)(F)F)O2)CC1 (single isomer, unassigned) [Example 359]
3. C[C@H]1C[C@@H](NC2CS(=O)(=O)C2)CN(c2ccc(C(F)(F)F)c3ncccc23)C1 [Example 13]
4. CC(=O)NCCNC[C@H]1CN(c2cnc(C#N)c3ncccc23)C[C@@H](C)O1 [Example 380]

-- reply
1. < 75 nM
2. < 75 nM
3. < 75 nM
4. > 150 nM
